Target: PapD-PapG complex (Escherichia coli)
Construct: made in house
Sequence (P15319 22-239): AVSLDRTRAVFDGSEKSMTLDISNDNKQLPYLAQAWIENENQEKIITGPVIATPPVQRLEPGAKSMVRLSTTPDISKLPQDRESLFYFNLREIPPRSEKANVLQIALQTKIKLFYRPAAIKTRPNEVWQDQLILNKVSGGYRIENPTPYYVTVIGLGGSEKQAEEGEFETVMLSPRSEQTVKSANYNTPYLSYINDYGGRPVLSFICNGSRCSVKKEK
Assay: Reconstitution assay: restoration of PapD-PapG complex from reduced, denatured PapG
Type: biochemical, E. coli
Details: PapD incubated with increasing amounts of peptide
VALUE_TYPE: inhibition of restoration of the PapD-PapG complex by PapD

NH2--GKRKPGELSGSMTMVLSFP--COOH (H-GKRKPGELSGSMTMVLSFP-OH) [G1'-19'WT, 19 carboxyl terminal residues of PapG]; inhibit restoration
NH2--KPGELSGSMTMVLSFP--COOH (H-KPGELSGSMTMVLSFP-OH) [G1'-16'WT]; inhibit restoration
NH2--KSVVPGDYEATATFELTYR--COOH (H-KSVVPGDYEATATFELTYR-OH) [K1'-19'WT]; inhibit restoration
